- Assay System: Protein Mdm4 (Homo sapiens) + E3 ubiquitin-protein ligase Mdm2 (Homo sapiens) (UniProt O15151+Q00987)
- Sequence (O15151 whole entry, looked up): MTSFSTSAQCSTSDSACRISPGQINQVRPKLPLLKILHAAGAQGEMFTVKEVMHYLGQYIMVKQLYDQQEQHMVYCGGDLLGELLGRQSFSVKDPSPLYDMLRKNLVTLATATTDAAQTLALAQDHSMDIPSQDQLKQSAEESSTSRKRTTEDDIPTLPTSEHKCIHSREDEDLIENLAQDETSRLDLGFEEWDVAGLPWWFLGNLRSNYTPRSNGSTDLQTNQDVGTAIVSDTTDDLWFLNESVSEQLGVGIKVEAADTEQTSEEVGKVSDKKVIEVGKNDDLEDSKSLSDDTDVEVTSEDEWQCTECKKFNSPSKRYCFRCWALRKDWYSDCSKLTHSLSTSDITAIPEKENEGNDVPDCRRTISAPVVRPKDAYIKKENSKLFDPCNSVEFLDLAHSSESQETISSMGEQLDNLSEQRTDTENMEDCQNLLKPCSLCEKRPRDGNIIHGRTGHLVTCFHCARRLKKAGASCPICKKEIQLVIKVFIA
- Sequence (Q00987 whole entry, looked up): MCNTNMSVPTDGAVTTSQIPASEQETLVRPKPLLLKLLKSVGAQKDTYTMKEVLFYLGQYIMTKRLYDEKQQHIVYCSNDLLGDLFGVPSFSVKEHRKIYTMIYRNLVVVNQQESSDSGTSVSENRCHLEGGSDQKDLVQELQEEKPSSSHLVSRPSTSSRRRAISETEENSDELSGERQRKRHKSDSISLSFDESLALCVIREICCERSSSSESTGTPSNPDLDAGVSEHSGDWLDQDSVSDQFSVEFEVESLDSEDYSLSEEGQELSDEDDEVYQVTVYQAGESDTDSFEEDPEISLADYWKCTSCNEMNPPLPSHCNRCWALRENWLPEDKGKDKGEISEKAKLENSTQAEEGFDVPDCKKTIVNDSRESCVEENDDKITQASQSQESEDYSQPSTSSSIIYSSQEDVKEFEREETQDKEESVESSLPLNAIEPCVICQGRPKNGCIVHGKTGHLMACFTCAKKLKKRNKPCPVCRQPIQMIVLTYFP
- Assay Procedure: Mdm2-MdmX complex disruptors, retested hits, confirmation, luminescence, single concentration (AID 489028)
- Measurement Setup: Mdm2-MdmX binding, luminescent assay; at 8 µM
The whole screen tested about 10,000 compounds, of which about 5,600 (56%) were called active. Rule as the data show it: active = inhibition above about 40%; inactive = the rest. So high a share suggests a set chosen from earlier hits. Not all results are given here.
// one of label 1 = active, label 0 = inactive, no free text

Past entries and their recorded results:
Cc1nn(-c2ccccc2)c2sc(C(=O)N(Cc3ccco3)C(C)C(=O)NC(C)(C)C)cc12 (stereo not drawn) ... label 0
C/C(=N\N=C(N)N)c1ccc(Cl)cc1 ... label 0

--- query ---
Prompt: // return assay outcome for Cc1cccc(Nc2ccccc2C(=O)NCc2ccco2)c1C
Response: label 1

---

- Assay System: Protein Mdm4 (Homo sapiens) + E3 ubiquitin-protein ligase Mdm2 (Homo sapiens) (UniProt O15151+Q00987)
- Assay Procedure: Mdm2-MdmX complex disruptors, retested hits, confirmation, luminescence, single concentration (AID 489028)
- Measurement Setup: Mdm2-MdmX binding, luminescent assay; at 8 µM; active compounds read high
Screen size: about 10,000 compounds; about 5,600 (56%) were called active. So high a share suggests a set chosen from earlier hits. The list is a sample of the results.
Listed next: entries and their corresponding inhibition.
// units = %; emit number, no label

Solved cases (6 shown):
CCOC(=O)c1c(-c2ccc(C)cc2)csc1/N=C(\C)C1=C(O)c2ccccc2C1=O ... 28.7
Cn1c(=O)n(C)c2cc(C(=O)Nc3ccc4c(c3)OCO4)ccc21 ... 47.6
CCc1ccc(N(CC)c2ncnc3nc[nH]c23)cc1 ... 52.4
Oc1ccc(/C=N/Nc2nc(-c3ccccc3F)nc3ccccc23)c(O)c1 ... 54.6
N#Cc1ccc(C(=O)Nc2nc(-c3cccs3)c(C(=O)C(F)(F)F)s2)cc1 ... 86.9
Nc1nonc1-n1nnc(C(=O)N/N=C/c2ccccc2O)c1CN1CCCC1 ... 33.8

Prompt: Name the recorded inhibition of the item Cc1nc2ccccc2nc1N/N=C/c1ccc(O)cc1O in your answer.
Response: 61.6

Prompt: Indicate its recorded inhibition; the compound in question is Cc1cccc(-c2nc3ccc(C(=O)NCCN4CCN(C)CC4)cc3nc2-c2cccc(C)c2)c1
Response: 28.6

Prompt: # return recorded inhibition for entry O=C1/C(=C\c2ccccc2Cl)SC(=S)N1CCC(=O)N1CCCc2ccccc21
Response: 60.8

Prompt: Quickly give me recorded inhibition for Cn1c(=O)n(C)c2cc(C(=O)Nc3ccc(Br)cc3)ccc21
Response: 35.1

Prompt: Fill in reported inhibition for this entry: c1ccc(C2CCC(N3CCC(N4CCCCC4)CC3)CC2)cc1 (stereo not given)
Response: 86.5

---

- Assay System: Protein Mdm4 (Homo sapiens) + E3 ubiquitin-protein ligase Mdm2 (Homo sapiens) (UniProt O15151+Q00987)
- Assay Procedure: Mdm2-MdmX complex disruptors, retested hits, confirmation, luminescence, single concentration (AID 489028)
- Measurement Setup: Mdm2-MdmX binding, luminescent assay; at 8 µM; active compounds read high
Hit rate of the full screen: of about 10,000 compounds, about 5,600 (56%) were called active. So high a share suggests a set chosen from earlier hits. Not all results are given here.
Documented inhibition across a set of compounds

Solved entries (count: 5):
Cc1ccc(NC(=S)NC(NC(=O)Cc2cccc3ccccc23)C(Cl)(Cl)Cl)cc1 (stereo unspecified) ... 11.2% (inactive)
CCOc1ccc(S(=O)(=O)Nc2cccc(C(=O)NCC3(N4CCCCC4)CCCCC3)c2)cc1 ... 78.6% (active)
Cc1cccc(NC(=S)NCc2ccc3[nH]c4c(c3c2)CCCC4)c1 ... 10.7% (inactive)
CCN1CCN(c2nc(Nc3cc(OC)ccc3OC)nc(Nc3cc(OC)ccc3OC)n2)CC1 ... 12.1% (inactive)
COc1cc(C(=O)NCc2nnc(SCC(=O)Nc3nc4ccc(C)cc4s3)o2)cc(OC)c1OC ... -0.1% (inactive)

Let's switch to this compound now.
Prompt: Fill in inhibition for record CCCCCCSc1ccc([C@@H]2[C@@H]3C(=O)N(CC)C(=O)[C@@H]3[C@]3(C(=O)OC)CCCCN23)cc1OC
Response: 21.6% (inactive)
